Hello, the source for this data is patent US10047105B2, in case you need it.

Tested on: S. pneumoniae ATCC 51916
experimental details: MIC, S. pneumoniae
Type: cell-based
assay setup: S. pneumoniae
Catalogue of compounds with associated MIC Spn52

The cases that follow already have their MIC Spn52 on record.
| compound | target entity | MIC Spn52 |
| --- | --- | --- |
| CCc1[nH]c2nc(Sc3cnc4nccnc4c3)nc(N3CCC(NC)C3)c2c1Cl.O=C(O)C(F)(F)F (centres unmarked) | S. pneumoniae ATCC 51916 | 4 µg/mL |
| CCNc1ccc(Sc2nc(OCC)c3c(Cl)c(CC)[nH]c3n2)nn1 | S. pneumoniae ATCC 51916 | > 64 µg/mL |
| CCc1[nH]c2nc(Sc3cnc4nccnc4c3)nc(N3CC(NC(=N)N)C3)c2c1Cl.O=C(O)C(F)(F)F | S. pneumoniae ATCC 51916 | > 64 µg/mL |
| CCc1[nH]c2nc(Sc3cnc4nccnc4c3)nc(NCCN3CCNCC3)c2c1Cl.O=C(O)C(F)(F)F.O=C(O)C(F)(F)F | S. pneumoniae ATCC 51916 | > 64 µg/mL |
| CCc1[nH]c2nc(Nc3cnc4c(c3)nnn4C(C)C)nc(OC)c2c1Cl.O=C(O)C(F)(F)F | S. pneumoniae ATCC 51916 | 8 µg/mL |

MIC Spn52 measured on `CCOc1nc(Sc2cc(C(=O)NC3CC3)ccn2)nc2[nH]c(CC)c(Br)c12` = > 64 µg/mL

MIC Spn52 measured on `CCc1[nH]c2nc(Sc3cnc4nccnc4c3)nc(N3CC(NC)C3)c2c1Cl` = 4 µg/mL

MIC Spn52 measured on `CCc1[nH]c2nc(Sc3cnc4cccnc4n3)nc(N3CC(NC(=O)OCc4ccccc4)C3)c2c1Br` = ≤ 0.5 µg/mL
